Tested on: RS4; 11
Assay text: Cell viability assay (MTS) in RS4; 11 cells
Format: cell-based
Run conditions: Homo sapiens, RS4-11; Table 2; 48 hr; MTS; read-out: Anti-Cancer Activity IC50 (48 hr) RS4; 11
Measured parameter: IC50

Examples with answers:
- Molecule: "Cc1ncsc1-c1ccc([C@H](C)NC(=O)[C@@H]2C[C@@H](O)CN2C(=O)[C@@H](NC(=O)CCCCCCC(=O)N2CCN(CC3(C)CCC(c4ccc(Cl)cc4)=C(CN4CCN(c5ccc(C(=O)NS(=O)(=O)c6ccc(N[C@H](CCN(CCO)C7CC7)CSc7ccccc7)c([N+](=O)[O-])c6)cc5)CC4)C3)CC2)C(C)(C)C)cc1 (stereo partly drawn) [Compound 44]"
  Measured target: "RS4; 11"
  IC50: "20 to 100 nM"
- Molecule: "Cc1ncsc1-c1ccc([C@H](C)NC(=O)[C@@H]2C[C@@H](O)CN2C(=O)[C@@H](NC(=O)CCCCCCC(=O)N2CCN(C[C@]3(C)CCC(c4ccc(Cl)cc4)=C(CN4CCN(c5ccc(C(=O)NS(=O)(=O)c6ccc(N[C@H](CCN7CCc8cccnc8C7)CSc7ccccc7)c([N+](=O)[O-])c6)cc5)CC4)C3)CC2)C(C)(C)C)cc1 [Compound 57]"
  Measured target: "RS4; 11"
  IC50: "20 to 100 nM"

Incoming: Bench note: what IC50 did Cc1ncsc1-c1ccc([C@H](C)NC(=O)[C@@H]2C[C@@H](O)CN2C(=O)[C@@H](NC(=O)CCCCC(=O)N2CCC(C3CCN(CC4(C)CCC(c5ccc(Cl)cc5)=C(CN5CCN(c6ccc(C(=O)NS(=O)(=O)c7ccc(N[C@H](CCN8C[C@H]9C[C@@H]8CO9)CSc8ccccc8)c(S(=O)(=O)C(F)(F)F)c7)cc6)CC5)C4)CC3)CC2)C(C)(C)C)cc1 (stereo partly drawn) [Compound 69] show?
Outgoing: < 20 nM

====

System: RS4; 11
Assay text: Cell viability assay (MTS) in RS4; 11 cells
Format: cell-based
Run conditions: Homo sapiens, RS4-11; Table 2; 48 hr; MTS; read-out: Anti-Cancer Activity IC50 (48 hr) RS4; 11
Measured parameter: IC50

- Compound: "Cc1ncsc1-c1ccc([C@H](C)NC(=O)[C@@H]2C[C@@H](O)CN2C(=O)[C@@H](NC(=O)CCCNC(=O)c2ccc(N3CCN(CC4(C)CCC(c5ccc(Cl)cc5)=C(CN5CCN(c6ccc(C(=O)NS(=O)(=O)c7ccc(N[C@H](CCN8CCOCC8)CSc8ccccc8)c(S(=O)(=O)C(F)(F)F)c7)cc6)CC5)C4)CC3)cn2)C(C)(C)C)cc1 (stereo partly drawn)"
  Measured parameter: "IC50"
  Recorded value: "20 to 100 nM"
- Compound: "Cc1ncsc1-c1ccc([C@H](C)NC(=O)[C@@H]2C[C@@H](O)CN2C(=O)[C@@H](NC(=O)CCCCCNC(=O)c2ccc(N3CCN(CC4(C)CCC(c5ccc(Cl)cc5)=C(CN5CCN(c6ccc(C(=O)NS(=O)(=O)c7ccc(N[C@H](CCN8CCOCC8)CSc8ccccc8)c(S(=O)(=O)C(F)(F)F)c7)cc6)CC5)C4)CC3)cc2)C(C)(C)C)cc1 (stereo partly drawn)"
  Measured parameter: "IC50"
  Recorded value: "20 to 100 nM"

Next:
Incoming: Bench note: what IC50 did Cc1ncsc1-c1ccc([C@H](C)NC(=O)[C@@H]2C[C@@H](O)CN2C(=O)[C@@H](NC(=O)CNC(=O)c2ccc(N3CCN(CC4(C)CCC(c5ccc(Cl)cc5)=C(CN5CCN(c6ccc(C(=O)NS(=O)(=O)c7ccc(N[C@H](CCN8CCOCC8)CSc8ccccc8)c(S(=O)(=O)C(F)(F)F)c7)cc6)CC5)C4)CC3)nc2)C(C)(C)C)cc1 (stereo partly drawn) show?
Outgoing: 100 to 500 nM
